Give measured 8OG:A repair function score for each item. Keep answers brief.
B1: library; numbered along this chain (parent)
chain: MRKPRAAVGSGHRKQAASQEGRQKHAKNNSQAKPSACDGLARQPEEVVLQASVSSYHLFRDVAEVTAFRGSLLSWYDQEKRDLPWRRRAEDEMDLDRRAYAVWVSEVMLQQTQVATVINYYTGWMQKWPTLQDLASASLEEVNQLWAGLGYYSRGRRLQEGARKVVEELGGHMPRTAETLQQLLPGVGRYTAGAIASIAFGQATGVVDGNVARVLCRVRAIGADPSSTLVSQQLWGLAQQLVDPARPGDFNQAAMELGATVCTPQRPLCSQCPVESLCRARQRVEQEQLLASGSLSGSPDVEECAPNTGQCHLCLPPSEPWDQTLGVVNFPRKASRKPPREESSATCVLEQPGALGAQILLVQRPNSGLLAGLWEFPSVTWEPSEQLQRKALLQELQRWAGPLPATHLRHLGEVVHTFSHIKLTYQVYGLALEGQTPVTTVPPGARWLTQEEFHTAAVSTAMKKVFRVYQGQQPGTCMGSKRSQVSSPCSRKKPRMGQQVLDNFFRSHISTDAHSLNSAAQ

- Variants of: B1
- test details: 8OG:A repair function score (normalized; synonymous = 0, nonsense = -1) (normalized log-likelihood score); higher = more repair activity (WT-like);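 note: cells sorted at 72 h after reporter transfection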
- recorded conditions: with 8OG:A DNA repair reporter (GFP) in HEK-293 MUTYH KO cells
Give bare numbers.

Value sought for every listed variant: 8OG:A repair function score.
1. P44S
2. L355W
3. A89G
4. E90I
5. F59D
6. H416R
7. V415E

-0.107
-0.0689
-0.0247
-0.0086
-0.583
-0.158
-0.106

Value sought for every listed variant: 8OG:A repair function score.
1. L396T
2. A147M
3. C314V

[-0.534, -0.0248, -0.631]

Value sought for every listed variant: 8OG:A repair function score.
1. Q271D
2. V485F
3. Q386A

1: -0.0548; 2: 0.0143; 3: 0.0488

Value sought for every listed variant: 8OG:A repair function score.
1. D300Y
2. P267F
3. A89T

[-0.121, -0.919, -0.00868]
